# TGT: ALPP (Homo sapiens, UniProt P05187)
# Sequence (P05187 with tags, fused parts or gaps): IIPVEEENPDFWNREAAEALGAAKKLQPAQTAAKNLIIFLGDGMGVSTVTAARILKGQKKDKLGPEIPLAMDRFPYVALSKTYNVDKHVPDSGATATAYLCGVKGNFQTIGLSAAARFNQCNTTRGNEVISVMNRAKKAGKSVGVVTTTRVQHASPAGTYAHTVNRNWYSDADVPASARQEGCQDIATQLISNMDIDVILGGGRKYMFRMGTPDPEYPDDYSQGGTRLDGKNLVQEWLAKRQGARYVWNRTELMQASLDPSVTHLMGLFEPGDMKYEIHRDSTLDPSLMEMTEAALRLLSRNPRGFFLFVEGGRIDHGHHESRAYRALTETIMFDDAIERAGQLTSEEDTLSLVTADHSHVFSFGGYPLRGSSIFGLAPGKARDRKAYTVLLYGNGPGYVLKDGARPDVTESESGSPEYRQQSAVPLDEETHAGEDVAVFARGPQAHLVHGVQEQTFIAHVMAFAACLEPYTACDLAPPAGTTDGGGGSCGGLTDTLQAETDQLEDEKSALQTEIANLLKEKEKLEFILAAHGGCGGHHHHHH
# MEASUREMENT_PROTOCOL: BLI binding kinetics, human ALPP immobilised on AR2G sensors (KD / KD apparent)
# STUDY_CONDITIONS: VHH domains
OUTCOME_MEASURE: hALPP Kd

Fill in hALPP Kd for record F12: ALPP targeting VHH domain, SEQ ID NO: 37 (protein) VHH: QVQLVESGGGLVEAGGSLRLSCAVSGSALSDYNIGWFRQAPGKEREFVARKTWDGSSTKYDDSVKGRFTVSIDNAKNTAYLQMNSLKTEDTAVYYCAAGRYSRVRGWEYDYWGQRTQVTVSS <1e-07 s⁻¹

Fill in hALPP Kd for record B11: ALPP targeting VHH domain, SEQ ID NO: 22 (protein) VHH: QVHLVESGGGSVQAGGSLRLSCAASGPSLSNYAMGWFRQAPGKEREFVAGISWGGGRTSYTDSVKGRFTISRDNAKNTVYLQMNNLKPEDTGVYYCAGRYGRGRNVEYEYDYWGQGTQVTVSS 0.000017 s⁻¹

Fill in hALPP Kd for record A05: ALPP/ALPPL2 targeting VHH domain, SEQ ID NO: 16; tested C-terminally His-tagged (protein, C-terminal His tag, tested C-terminally His-tagged) VHH: QVQLVESGGGLVQAGASLTLSCAASGFTFNTRSIVWFRQAPGKEREAVSCISKVAGSTYYGDSVQGRFSSSTDNAKNTVSLQMNSLKPEDTAVYTCAASFAPNCYGWSVAANMEYWGEGTMVTVSS <1e-07 s⁻¹
